Here we list compounds with their recorded pIC50 when tested on KAT5 (Homo sapiens).
Sequence (Q92993 with tags, fused parts or gaps): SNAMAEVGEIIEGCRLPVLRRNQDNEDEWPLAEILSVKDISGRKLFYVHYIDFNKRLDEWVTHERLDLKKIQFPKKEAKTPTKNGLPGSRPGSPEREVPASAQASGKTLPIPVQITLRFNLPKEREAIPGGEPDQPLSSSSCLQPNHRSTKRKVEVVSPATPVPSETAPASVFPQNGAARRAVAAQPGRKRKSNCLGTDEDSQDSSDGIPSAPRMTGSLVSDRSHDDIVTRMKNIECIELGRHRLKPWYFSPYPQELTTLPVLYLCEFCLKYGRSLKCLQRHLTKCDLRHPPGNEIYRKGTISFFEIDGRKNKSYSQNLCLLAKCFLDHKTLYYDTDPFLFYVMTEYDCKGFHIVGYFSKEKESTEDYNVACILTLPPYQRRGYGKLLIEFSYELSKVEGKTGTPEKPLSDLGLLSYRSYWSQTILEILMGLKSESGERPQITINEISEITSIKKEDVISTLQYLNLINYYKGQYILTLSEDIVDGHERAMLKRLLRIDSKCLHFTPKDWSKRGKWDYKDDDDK
pIC50: −log10 of the molar value.

// known answers, use as guide
[[record]]
compound = "O=C(NNS(=O)(=O)C1CCCCC1)c1cc(-c2cccc(F)c2)cc(Cl)c1F"
assay_metric = "pIC50"
reported_measurement = "≥ 5.00"

[[record]]
compound = "COCCC(=O)N1CCC(S(=O)(=O)NNC(=O)c2cc(-c3ccccc3)cc(C)c2F)CC1"
assay_metric = "pIC50"
reported_measurement = "4.30 to 5.00"

[[record]]
compound = "O=C(NS(=O)(=O)c1ccccc1)c1c[nH]c2ccccc12"
assay_metric = "pIC50"
reported_measurement = "< 4.00"

[[record]]
compound = "O=C(NNS(=O)(=O)c1ccccc1F)c1ccccc1"
assay_metric = "pIC50"
reported_measurement = "< 4.00"

[[record]]
compound = "O=C(NNS(=O)(=O)C1CCOCC1)c1cc(CN2CCCCC2)cc(Cl)c1F"
assay_metric = "pIC50"
reported_measurement = "4.00 to 4.30"

[[record]]
compound = "O=C(NNS(=O)(=O)C1CCCCC1)c1nc(-c2ccccc2)cc(Cl)c1F"
assay_metric = "pIC50"
reported_measurement = "< 4.00"

[[record]]
compound = "COCCN1CCCC(S(=O)(=O)NNC(=O)c2cc(-c3ccccc3)cc(C)c2F)C1 (centres unmarked)"
assay_metric = "pIC50"
reported_measurement = "4.30 to 5.00"

[[record]]
compound = "CC(=O)N1CC(S(=O)(=O)NNC(=O)c2cc(-c3ccccc3)cc(C)c2F)C1"
assay_metric = "pIC50"
reported_measurement = "4.00 to 4.30"

[[record]]
compound = "COc1cccc(-c2cc(C)c(F)c(C(=O)NNS(=O)(=O)CC3CCCCC3)c2)c1"
assay_metric = "pIC50"
reported_measurement = "≥ 5.00"

[[record]]
compound = "Cc1cc(-c2cccc(F)c2)cc(C(=O)NNS(=O)(=O)CC2CCCN(C(=O)CCN(C)C(=O)OC(C)(C)C)C2)c1F (centres unmarked)"
assay_metric = "pIC50"
reported_measurement = "≥ 5.00"


Input: Given the compound O=C(NNS(=O)(=O)c1ccccc1)c1c(F)ccc2ccccc12 , write its reported pIC50.
Output: < 4.00

Input: Give a short answer stating reported pIC50 for O=C(NNS(=O)(=O)c1ccccc1)c1ccc(F)cc1 .
Output: < 4.00

Input: Note pIC50 for the compound shown: Cn1cc(-c2ccc(F)c(Cl)c2)nc1C(=O)NNS(=O)(=O)CC1CCOCC1
Output: < 4.00

Input: Using the record for Cc1nn(Cc2ccccc2)cc1C(=O)NNS(=O)(=O)c1ccccc1 , state its measured pIC50.
Output: < 4.00
